# Test system: Staphylococcus haemolyticus 415
# TEST_DETAILS: MIC, standard broth micro-dilution assay
# Assay type: cell-based
For each entry below, report its MIC value.
Value expressed in µg/mL; do not type the unit.

Which MIC is listed for CNC(CC(C)C)C(=O)NC1C(=O)NC(CC(N)=O)C(=O)NC2C(=O)NC3C(=O)NC(C(=O)NC(C(=O)O)c4cc(O)cc(O)c4-c4cc3ccc4O)C(OC3CC(C)(N)C(O)C(C)O3)c3ccc(c(Cl)c3)Oc3cc2cc(c3OC2OC(CO)C(O)C(O)C2OC2CC(C)(NCc3ccc(SC)cc3)C(O)C(C)O2)Oc2ccc(cc2Cl)C1O (centres unmarked) ?
4

Which MIC is listed for CNC(CC(C)C)C(=O)NC1C(=O)NC(CC(N)=O)C(=O)NC2C(=O)NC3C(=O)NC(C(=O)NC(C(=O)O)c4cc(O)cc(O)c4-c4cc3ccc4O)C(OC3CC(C)(N)C(O)C(C)O3)c3ccc(c(Cl)c3)Oc3cc2cc(c3OC2OC(CO)C(O)C(O)C2OC2CC(C)(NCC(C)=Cc3ccc(C(C)(C)C)cc3)C(O)C(C)O2)Oc2ccc(cc2Cl)C1O (centres unmarked) ?
1

###

For each entry below, report its MIC value.
# Tested on: Streptococcus pneumoniae P1
# TEST_DETAILS: MIC, standard broth micro-dilution assay
# Format: cell-based

What reported MIC corresponds to CNC(CC(C)C)C(=O)NC1C(=O)NC(CC(N)=O)C(=O)NC2C(=O)NC3C(=O)NC(C(=O)NC(C(=O)O)c4cc(O)cc(O)c4-c4cc3ccc4O)C(OC3CC(C)(N)C(O)C(C)O3)c3ccc(c(Cl)c3)Oc3cc2cc(c3OC2OC(CO)C(O)C(O)C2OC2CC(C)(NCC(C)=Cc3ccc(C(C)(C)C)cc3)C(O)C(C)O2)Oc2ccc(cc2Cl)C1O (centres unmarked) on Streptococcus pneumoniae P1?
≤ 0.06 µg/mL

What reported MIC corresponds to CNC(CC(C)C)C(=O)NC1C(=O)NC(CC(N)=O)C(=O)NC2C(=O)NC3C(=O)NC(C(=O)NC(C(=O)O)c4cc(O)cc(O)c4-c4cc3ccc4O)C(OC3CC(C)(N)C(O)C(C)O3)c3ccc(c(Cl)c3)Oc3cc2cc(c3OC2OC(CO)C(O)C(O)C2OC2CC(C)(NCc3ccc(Cc4ccccc4)cc3)C(O)C(C)O2)Oc2ccc(cc2Cl)C1O (centres unmarked) on Streptococcus pneumoniae P1?
≤ 0.06 µg/mL

###

For each entry below, report its MIC value.
# Test system: Entercoccus faecium 180-1
# TEST_DETAILS: MIC, standard broth micro-dilution assay
# Assay type: cell-based

Which MIC is listed for CNC(CC(C)C)C(=O)NC1C(=O)NC(CC(N)=O)C(=O)NC2C(=O)NC3C(=O)NC(C(=O)NC(C(=O)O)c4cc(O)cc(O)c4-c4cc3ccc4O)C(OC3CC(C)(N)C(O)C(C)O3)c3ccc(c(Cl)c3)Oc3cc2cc(c3OC2OC(CO)C(O)C(O)C2OC2CC(C)(NCc3ccc(SC)cc3)C(O)C(C)O2)Oc2ccc(cc2Cl)C1O (stereo not drawn) ?
≤ 0.06 µg/mL

Which MIC is listed for CNC(CC(C)C)C(=O)NC1C(=O)NC(CC(N)=O)C(=O)NC2C(=O)NC3C(=O)NC(C(=O)NC(C(=O)O)c4cc(O)cc(O)c4-c4cc3ccc4O)C(OC3CC(C)(N)C(O)C(C)O3)c3ccc(c(Cl)c3)Oc3cc2cc(c3OC2OC(CO)C(O)C(O)C2OC2CC(C)(NCc3cc(-c4ccccc4)nc4ccc(OC)cc34)C(O)C(C)O2)Oc2ccc(cc2Cl)C1O (stereo not drawn) [Compound 45, 4-[2-phenyl-6-methoxy]quinoylmethyl] ?
≤ 0.06 µg/mL

Which MIC is listed for CNC(CC(C)C)C(=O)NC1C(=O)NC(CC(N)=O)C(=O)NC2C(=O)NC3C(=O)NC(C(=O)NC(C(=O)O)c4cc(O)cc(O)c4-c4cc3ccc4O)C(OC3CC(C)(N)C(O)C(C)O3)c3ccc(c(Cl)c3)Oc3cc2cc(c3OC2OC(CO)C(O)C(O)C2OC2CC(C)(NCc3ccc4c(c3)OCO4)C(O)C(C)O2)Oc2ccc(cc2Cl)C1O (stereo not drawn) ?
≤ 0.06 µg/mL

###

For each entry below, report its MIC value.
# Test system: Staphylococcus aureus SA1199A
# TEST_DETAILS: MIC, standard broth micro-dilution assay
# Format: cell-based

What reported MIC corresponds to CNC(CC(C)C)C(=O)NC1C(=O)NC(CC(N)=O)C(=O)NC2C(=O)NC3C(=O)NC(C(=O)NC(C(=O)O)c4cc(O)cc(O)c4-c4cc3ccc4O)C(OC3CC(C)(N)C(O)C(C)O3)c3ccc(c(Cl)c3)Oc3cc2cc(c3OC2OC(CO)C(O)C(O)C2OC2CC(C)(NCc3ccc(Cc4ccccc4)cc3)C(O)C(C)O2)Oc2ccc(cc2Cl)C1O (stereo not drawn) on Staphylococcus aureus SA1199A?
≤ 0.06 µg/mL

What reported MIC corresponds to CNC(CC(C)C)C(=O)NC1C(=O)NC(CC(N)=O)C(=O)NC2C(=O)NC3C(=O)NC(C(=O)NC(C(=O)O)c4cc(O)cc(O)c4-c4cc3ccc4O)C(OC3CC(C)(N)C(O)C(C)O3)c3ccc(c(Cl)c3)Oc3cc2cc(c3OC2OC(CO)C(O)C(O)C2OC2CC(C)(NCc3ccc(SC)cc3)C(O)C(C)O2)Oc2ccc(cc2Cl)C1O (stereo not drawn) on Staphylococcus aureus SA1199A?
≤ 0.06 µg/mL

What reported MIC corresponds to CNC(CC(C)C)C(=O)NC1C(=O)NC(CC(N)=O)C(=O)NC2C(=O)NC3C(=O)NC(C(=O)NC(C(=O)O)c4cc(O)cc(O)c4-c4cc3ccc4O)C(OC3CC(C)(N)C(O)C(C)O3)c3ccc(c(Cl)c3)Oc3cc2cc(c3OC2OC(CO)C(O)C(O)C2OC2CC(C)(NCC3CC=CCC3)C(O)C(C)O2)Oc2ccc(cc2Cl)C1O (stereo not drawn) on Staphylococcus aureus SA1199A?
0.25 µg/mL

###

# Test system: Leuconostoc pseudomesenteroides
# TEST_DETAILS: MIC, agar dilution on brain-heart infusion agar
# Type: cell-based
PARAMETER: MIC (µg/mL)
Value expressed in µg/mL; do not type the unit.

Which MIC is listed for CNC(CC(C)C)C(=O)NC1C(=O)NC(CC(N)=O)C(=O)NC2C(=O)NC3C(=O)NC(C(=O)NC(C(=O)O)c4cc(O)cc(O)c4-c4cc3ccc4O)C(OC3CC(C)(N)C(O)C(C)O3)c3ccc(c(Cl)c3)Oc3cc2cc(c3OC2OC(CO)C(O)C(O)C2OC2CC(C)(NCc3ccc(OC(F)(F)F)cc3)C(O)C(C)O2)Oc2ccc(cc2Cl)C1O (stereo not drawn) [Compound 6, 4-trifluoromethoxybenzyl] ?
16

Which MIC is listed for CNC(CC(C)C)C(=O)NC1C(=O)NC(CC(N)=O)C(=O)NC2C(=O)NC3C(=O)NC(C(=O)NC(C(=O)O)c4cc(O)cc(O)c4-c4cc3ccc4O)C(OC3CC(C)(N)C(O)C(C)O3)c3ccc(c(Cl)c3)Oc3cc2cc(c3OC2OC(CO)C(O)C(O)C2OC2CC(C)(NCc3ccc(Oc4ccccc4)cc3)C(O)C(C)O2)Oc2ccc(cc2Cl)C1O (stereo not drawn) [Compound 4, p-phenoxybenzyl.cndot.A82846B] ?
32

###

# Tested on: Staphylococcus aureus SA1199A
# TEST_DETAILS: MIC, standard broth micro-dilution assay
# Format: cell-based
PARAMETER: MIC (µg/mL)
Value expressed in µg/mL; do not type the unit.

Which MIC is listed for CNC(CC(C)C)C(=O)NC1C(=O)NC(CC(N)=O)C(=O)NC2C(=O)NC3C(=O)NC(C(=O)NC(C(=O)O)c4cc(O)cc(O)c4-c4cc3ccc4O)C(OC3CC(C)(N)C(O)C(C)O3)c3ccc(c(Cl)c3)Oc3cc2cc(c3OC2OC(CO)C(O)C(O)C2OC2CC(C)(NCc3ccc(C(c4ccccc4)c4ccccc4)cc3)C(O)C(C)O2)Oc2ccc(cc2Cl)C1O (stereo not drawn) [Compound 46, 4-diphenylmethylbenzyl] ?
0.5

Which MIC is listed for CCCCCOc1ccc(-c2ccc(CNC3(C)CC(OC4C(Oc5c6cc7cc5Oc5ccc(cc5Cl)C(OC5CC(C)(N)C(O)C(C)O5)C5NC(=O)C(NC(=O)C7NC(=O)C(CC(N)=O)NC(=O)C(NC(=O)C(CC(C)C)NC)C(O)c7ccc(c(Cl)c7)O6)c6ccc(O)c(c6)-c6c(O)cc(O)cc6C(C(=O)O)NC5=O)OC(CO)C(O)C4O)OC(C)C3O)cc2)cc1 (stereo not drawn) [Compound 40, 4-[4-pentoxyphenyl]benzyl] ?
0.5

###

For each entry below, report its MIC value.
# Test system: Staphylococcus aureus 489
# TEST_DETAILS: MIC, standard broth micro-dilution assay
# Type: cell-based
Value expressed in µg/mL; do not type the unit.

Which MIC is listed for CNC(CC(C)C)C(=O)NC1C(=O)NC(CC(N)=O)C(=O)NC2C(=O)NC3C(=O)NC(C(=O)NC(C(=O)O)c4cc(O)cc(O)c4-c4cc3ccc4O)C(OC3CC(C)(N)C(O)C(C)O3)c3ccc(c(Cl)c3)Oc3cc2cc(c3OC2OC(CO)C(O)C(O)C2OC2CC(C)(NCc3ccc(C(c4ccccc4)c4ccccc4)cc3)C(O)C(C)O2)Oc2ccc(cc2Cl)C1O (stereo not drawn) ?
1

Which MIC is listed for CCCCCOc1ccc(-c2ccc(CNC3(C)CC(OC4C(Oc5c6cc7cc5Oc5ccc(cc5Cl)C(OC5CC(C)(N)C(O)C(C)O5)C5NC(=O)C(NC(=O)C7NC(=O)C(CC(N)=O)NC(=O)C(NC(=O)C(CC(C)C)NC)C(O)c7ccc(c(Cl)c7)O6)c6ccc(O)c(c6)-c6c(O)cc(O)cc6C(C(=O)O)NC5=O)OC(CO)C(O)C4O)OC(C)C3O)cc2)cc1 (stereo not drawn) [Compound 40, 4-[4-pentoxyphenyl]benzyl] ?
4

Which MIC is listed for CNC(CC(C)C)C(=O)NC1C(=O)NC(CC(N)=O)C(=O)NC2C(=O)NC3C(=O)NC(C(=O)NC(C(=O)O)c4cc(O)cc(O)c4-c4cc3ccc4O)C(OC3CC(C)(N)C(O)C(C)O3)c3ccc(c(Cl)c3)Oc3cc2cc(c3OC2OC(CO)C(O)C(O)C2OC2CC(C)(NCC(C)=Cc3ccc(C(C)(C)C)cc3)C(O)C(C)O2)Oc2ccc(cc2Cl)C1O (stereo not drawn) ?
0.5

Which MIC is listed for CNC(CC(C)C)C(=O)NC1C(=O)NC(CC(N)=O)C(=O)NC2C(=O)NC3C(=O)NC(C(=O)NC(C(=O)O)c4cc(O)cc(O)c4-c4cc3ccc4O)C(OC3CC(C)(N)C(O)C(C)O3)c3ccc(c(Cl)c3)Oc3cc2cc(c3OC2OC(CO)C(O)C(O)C2OC2CC(C)(NCc3cc(-c4ccccc4)nc4ccc(OC)cc34)C(O)C(C)O2)Oc2ccc(cc2Cl)C1O (stereo not drawn) [Compound 45, 4-[2-phenyl-6-methoxy]quinoylmethyl] ?
0.5

The measured values listed here are drawn from patent US5843889A.
